# run description: Chemical stability stress test (HPLC purity before and after)
# Format: physicochemical
# recorded conditions: stress conditions: 80°C for 46 hours; 2760 min
Structures can show the parent of a compound that is named as a salt.
# reported HPLC purity (%) after the stress test; entries follow
Express it in %; write the number only.

Sample records with HPLC purity (%) after the stress test:
>>> print(df.to_string())
                                   compound                          assay_readout  observed_result
0  CC(C)OC(=O)OCOP(=O)(CO[C@H](C)Cn1cnc2c(N)ncnc21)OCOC(=O)OC(C)C [Tenofovir disoproxil L-tartrate]  HPLC purity (%) after the stress test            21.12
1  CC(C)OC(=O)OCOP(=O)(CO[C@H](C)Cn1cnc2c(N)ncnc21)OCOC(=O)OC(C)C [Tenofovir disoproxil (free base)]  HPLC purity (%) after the stress test             6.13
2  CC(C)OC(=O)OCOP(=O)(CO[C@H](C)Cn1cnc2c(N)ncnc21)OCOC(=O)OC(C)C [Tenofovir disoproxil succinate]  HPLC purity (%) after the stress test            54.16
3  CC(C)OC(=O)OCOP(=O)(CO[C@H](C)Cn1cnc2c(N)ncnc21)OCOC(=O)OC(C)C [Tenofovir disoproxil D-tartrate]  HPLC purity (%) after the stress test            25.51
4  CC(C)OC(=O)OCOP(=O)(CO[C@H](C)Cn1cnc2c(N)ncnc21)OCOC(=O)OC(C)C [Tenofovir disoproxil fumarate]  HPLC purity (%) after the stress test             4.08

API: the following record is the query input.
Prompt: # lookup: HPLC purity (%) after the stress test of CC(C)OC(=O)OCOP(=O)(CO[C@H](C)Cn1cnc2c(N)ncnc21)OCOC(=O)OC(C)C [Tenofovir disoproxil dihydrogenphosphate]
Response: 97.69
